# TARGET_DESC: T1, light-activated bovine rhodopsin (metarhodopsin II) in rod outer segment membranes (bovine, UniProt P02699 1-348, retinylidene chromophore on Lys-296 (all-trans after light))
# T1 construct: whole, on cells; also called MII
# TEST_DESCRIPTION: ELISA of clone lysate on rhodopsin
# Experimental: The methods of Example 7 repeated using rhodopsin screening with a Gt library. To identify the rank order of binding, the lysates were analyzed using ELISA methods in which the secondary antibody was conjugated to HRP. Following addition of the substrate, the microplate was read using a spectrophotometer. The binding is the OD₄₅₀ for wells with receptor—OD₄₅₀ for wells in which no receptor (control wells with empty lipid vesicles).
Entries annotated with measured ELISA (OD450 with receptor minus OD450 without receptor)
A number alone suffices; assume OD450.

Reference set (3 entries):
The measured ELISA (OD450 with receptor minus OD450 without receptor) associated with LacI fusion clone L14 (Gt library) (other, E. coli, not shown: small tags and cut ends) MKPVTLYDVAEYAGVSYQTVSRVVNQASHVSAKTREKVEAAMAELNYIPNRVAQQLAGKQSLLIGVATSSLALHAPSQIVAAIKSRADQLGASVVVSMVERSGVEACKAAVHNLLAQRVSGLIINYPLDDQDAIAVEAACTNVPALFLDVSDQTPINSIIFSHEDGTRLGVEHLVALGHQQIALLAGPLSSVSARLRLAGWHKYLTRNQIQPIAEREGDWSAMSGFQQTMQMLNEGIVPTAMLVANDQMALGAMRAITESGLRVGADISVVGYDDTEDSSCYIPPLTTIKQDFRLLGQTSVDRLLQLSQGQAVKGNQLLPVSLVKRKTTLAPNTQTASPRALADSLMQLARQVSRLESGQLRENLKDCGLL reads 0.833

Value of measured ELISA (OD450 with receptor minus OD450 without receptor) for the entry LacI fusion clone L10 (Gt library), IHDRLKDCGLF (other, E. coli, not shown: small tags and cut ends, this is the first) MKPVTLYDVAEYAGVSYQTVSRVVNQASHVSAKTREKVEAAMAELNYIPNRVAQQLAGKQSLLIGVATSSLALHAPSQIVAAIKSRADQLGASVVVSMVERSGVEACKAAVHNLLAQRVSGLIINYPLDDQDAIAVEAACTNVPALFLDVSDQTPINSIIFSHEDGTRLGVEHLVALGHQQIALLAGPLSSVSARLRLAGWHKYLTRNQIQPIAEREGDWSAMSGFQQTMQMLNEGIVPTAMLVANDQMALGAMRAITESGLRVGADISVVGYDDTEDSSCYIPPLTTIKQDFRLLGQTSVDRLLQLSQGQAVKGNQLLPVSLVKRKTTLAPNTQTASPRALADSLMQLARQVSRLESGQIHDRLKDCGLF : 0.506

The binder identified as LacI fusion clone L34 (Gt library) (other, E. coli, not shown: small tags and cut ends) MKPVTLYDVAEYAGVSYQTVSRVVNQASHVSAKTREKVEAAMAELNYIPNRVAQQLAGKQSLLIGVATSSLALHAPSQIVAAIKSRADQLGASVVVSMVERSGVEACKAAVHNLLAQRVSGLIINYPLDDQDAIAVEAACTNVPALFLDVSDQTPINSIIFSHEDGTRLGVEHLVALGHQQIALLAGPLSSVSARLRLAGWHKYLTRNQIQPIAEREGDWSAMSGFQQTMQMLNEGIVPTAMLVANDQMALGAMRAITESGLRVGADISVVGYDDTEDSSCYIPPLTTIKQDFRLLGQTSVDRLLQLSQGQAVKGNQLLPVSLVKRKTTLAPNTQTASPRALADSLMQLARQVSRLESGQILESLNECGLF registered its ELISA (OD450 with receptor minus OD450 without receptor) at 0.603

In the following, a different binder is considered.
Record summary for LacI fusion clone L3 (Gt library) (other, E. coli, not shown: small tags and cut ends) MKPVTLYDVAEYAGVSYQTVSRVVNQASHVSAKTREKVEAAMAELNYIPNRVAQQLAGKQSLLIGVATSSLALHAPSQIVAAIKSRADQLGASVVVSMVERSGVEACKAAVHNLLAQRVSGLIINYPLDDQDAIAVEAACTNVPALFLDVSDQTPINSIIFSHEDGTRLGVEHLVALGHQQIALLAGPLSSVSARLRLAGWHKYLTRNQIQPIAEREGDWSAMSGFQQTMQMLNEGIVPTAMLVANDQMALGAMRAITESGLRVGADISVVGYDDTEDSSCYIPPLTTIKQDFRLLGQTSVDRLLQLSQGQAVKGNQLLPVSLVKRKTTLAPNTQTASPRALADSLMQLARQVSRLESGQILENLKDCGLF : reported ELISA (OD450 with receptor minus OD450 without receptor) = 0.839

Hello, the source for this data is patent US20070077597A1, in case you need it.
